target: porcine pancreatic kallikrein (porcine, UniProt P00752 8-246); experiment: protease inhibition, apparent Ki (Ki,app)
Sequence (P00752 8-246): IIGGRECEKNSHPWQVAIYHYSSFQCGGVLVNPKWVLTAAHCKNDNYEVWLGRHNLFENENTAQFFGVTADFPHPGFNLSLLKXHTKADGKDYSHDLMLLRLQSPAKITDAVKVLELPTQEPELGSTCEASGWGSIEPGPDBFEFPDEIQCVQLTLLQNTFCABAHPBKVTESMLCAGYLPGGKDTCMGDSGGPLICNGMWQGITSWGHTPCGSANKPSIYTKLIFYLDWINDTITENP
readout type: Ki (µM)
Only the number, expressed in µM, is required.

Query block: Which Ki value is on record for PEP-1 KI polypeptide (designed binder, also called DX88) EAMHSFCAFKADDGPCRAAHPRWFFNIFTRQCEEFIYGGCEGNQNRFESLEECKKMCTRD ?
Result block: 27
